# Test name: Aqueous solubility of the compound
# Format: physicochemical
# Recorded conditions: water
Endpoint name: solubility (mg/mL)
Write it as a number; the unit mg/mL goes unstated.

>  <Record smiles>
O=C1OCC(c2ccc(-c3nn[nH]n3)cc2)=C1c1ccccc1

>  <Result number>
125

$$$$

// next item, solubility requested
[ask] Look up solubility: Cc1ccc(-c2cc(C(F)(F)F)nn2-c2ccc(-c3nnn[nH]3)cc2)cc1
[reply] 100

====

# Assayed target: Prostaglandin G/H synthase 2 (Homo sapiens)
# Sequence (P35354 whole entry): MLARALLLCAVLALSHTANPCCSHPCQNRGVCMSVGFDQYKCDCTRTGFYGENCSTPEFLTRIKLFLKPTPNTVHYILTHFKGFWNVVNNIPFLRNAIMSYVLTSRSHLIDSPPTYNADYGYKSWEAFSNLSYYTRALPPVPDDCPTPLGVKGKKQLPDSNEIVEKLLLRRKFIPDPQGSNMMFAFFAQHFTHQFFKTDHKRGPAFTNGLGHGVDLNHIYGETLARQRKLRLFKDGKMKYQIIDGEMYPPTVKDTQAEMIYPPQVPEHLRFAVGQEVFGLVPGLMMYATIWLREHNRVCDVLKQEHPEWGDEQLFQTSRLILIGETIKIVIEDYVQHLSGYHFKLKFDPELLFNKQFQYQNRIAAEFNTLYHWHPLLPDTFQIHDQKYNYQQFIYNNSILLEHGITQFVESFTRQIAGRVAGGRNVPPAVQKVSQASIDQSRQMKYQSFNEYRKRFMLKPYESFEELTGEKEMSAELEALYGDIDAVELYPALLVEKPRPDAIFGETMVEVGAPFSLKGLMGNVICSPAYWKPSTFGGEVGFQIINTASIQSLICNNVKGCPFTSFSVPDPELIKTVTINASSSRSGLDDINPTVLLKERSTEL
Endpoint name: IC50 (nM)
Write it as a number; the unit nM goes unstated.

[ask] Look up IC50: Cc1ccc(-c2cc(C(F)(F)F)nn2-c2ccc(-c3nnn[nH]3)cc2)cc1
[reply] 1.9
